Data origin, for the record: ChEMBL document CHEMBL1148338

- Tested system: Norepinephrine transporter (Rattus norvegicus, UniProt Q9WTR4)
- Sequence (Q9WTR4 whole entry): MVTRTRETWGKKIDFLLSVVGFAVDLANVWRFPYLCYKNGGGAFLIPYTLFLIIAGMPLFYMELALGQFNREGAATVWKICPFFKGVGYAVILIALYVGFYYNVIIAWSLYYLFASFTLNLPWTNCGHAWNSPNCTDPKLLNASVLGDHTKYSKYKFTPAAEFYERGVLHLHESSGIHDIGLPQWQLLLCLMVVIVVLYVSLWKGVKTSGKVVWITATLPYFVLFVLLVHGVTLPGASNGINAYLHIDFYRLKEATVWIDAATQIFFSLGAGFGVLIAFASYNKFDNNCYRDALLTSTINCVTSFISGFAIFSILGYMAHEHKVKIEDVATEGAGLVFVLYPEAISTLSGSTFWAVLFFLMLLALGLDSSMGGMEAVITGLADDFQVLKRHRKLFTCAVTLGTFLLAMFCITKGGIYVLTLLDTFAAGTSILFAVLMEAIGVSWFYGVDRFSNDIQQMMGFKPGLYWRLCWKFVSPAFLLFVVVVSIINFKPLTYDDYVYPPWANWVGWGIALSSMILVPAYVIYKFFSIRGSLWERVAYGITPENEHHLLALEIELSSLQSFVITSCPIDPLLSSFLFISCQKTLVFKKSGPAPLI
pKi: −log10 of the molar value.
// reported pKi per item

Compound | Tested system | pKi
Fc1ccc(C(OC2CC3CCC(C2)N3CCCOc2ccccc2)c2ccc(F)cc2)cc1 (stereo not drawn) | Norepinephrine transporter (Rattus norvegicus, UniProt Q9WTR4) | 4.92
Fc1ccc(C(OC2CC3CCC(C2)N3CCOCCN2CCOCC2)c2ccc(F)cc2)cc1 (stereo not drawn) | Norepinephrine transporter (Rattus norvegicus, UniProt Q9WTR4) | 4.55
NCCN1[C@@H]2CC[C@H]1C[C@@H](OC(c1ccc(F)cc1)c1ccc(F)cc1)C2 | Norepinephrine transporter (Rattus norvegicus, UniProt Q9WTR4) | 5.85
O=C(NCCN1C2CCC1CC(OC(c1ccc(F)cc1)c1ccc(F)cc1)C2)c1ccccc1 (stereo not drawn) | Norepinephrine transporter (Rattus norvegicus, UniProt Q9WTR4) | 6.20
Fc1ccc(C(OC2CC3CCC(C2)N3CCOCc2ccccc2)c2ccc(F)cc2)cc1 (stereo not drawn) | Norepinephrine transporter (Rattus norvegicus, UniProt Q9WTR4) | 5.51
O=C(CCN1[C@@H]2CC[C@H]1C[C@@H](OC(c1ccc(F)cc1)c1ccc(F)cc1)C2)Nc1ccccc1 | Norepinephrine transporter (Rattus norvegicus, UniProt Q9WTR4) | 5.85
Fc1ccc(C(OC2CC3CCC(C2)N3CCOCc2cccs2)c2ccc(F)cc2)cc1 (stereo not drawn) | Norepinephrine transporter (Rattus norvegicus, UniProt Q9WTR4) | 5.46
OCCOCCN1C2CCC1CC(OC(c1ccc(F)cc1)c1ccc(F)cc1)C2 (stereo not drawn) | Norepinephrine transporter (Rattus norvegicus, UniProt Q9WTR4) | 5.44

====

- Procedure details: Partition coefficient (logD)
- Settings: octanol/water
Measurement kind: logD

Compound | Measured
Fc1ccc(C(OC2CC3CCC(C2)N3CCOCc2cccs2)c2ccc(F)cc2)cc1 (centres undefined) | 4.19
OCCOCCN1C2CCC1CC(OC(c1ccc(F)cc1)c1ccc(F)cc1)C2 (centres undefined) | 2.01
COC(=O)[C@@H]1C2CC[C@@H](C[C@@H]1OC(=O)c1ccccc1)N2C (single isomer, unassigned) | 1.51
Fc1ccc(C(OC2CC3CCC(C2)N3CCOCCN2CCOCC2)c2ccc(F)cc2)cc1 (centres undefined) | 2.05

====

Sodium-dependent serotonin transporter (Rattus norvegicus, UniProt P31652) data, read-out log10 Ki
Sequence (P31652 whole entry): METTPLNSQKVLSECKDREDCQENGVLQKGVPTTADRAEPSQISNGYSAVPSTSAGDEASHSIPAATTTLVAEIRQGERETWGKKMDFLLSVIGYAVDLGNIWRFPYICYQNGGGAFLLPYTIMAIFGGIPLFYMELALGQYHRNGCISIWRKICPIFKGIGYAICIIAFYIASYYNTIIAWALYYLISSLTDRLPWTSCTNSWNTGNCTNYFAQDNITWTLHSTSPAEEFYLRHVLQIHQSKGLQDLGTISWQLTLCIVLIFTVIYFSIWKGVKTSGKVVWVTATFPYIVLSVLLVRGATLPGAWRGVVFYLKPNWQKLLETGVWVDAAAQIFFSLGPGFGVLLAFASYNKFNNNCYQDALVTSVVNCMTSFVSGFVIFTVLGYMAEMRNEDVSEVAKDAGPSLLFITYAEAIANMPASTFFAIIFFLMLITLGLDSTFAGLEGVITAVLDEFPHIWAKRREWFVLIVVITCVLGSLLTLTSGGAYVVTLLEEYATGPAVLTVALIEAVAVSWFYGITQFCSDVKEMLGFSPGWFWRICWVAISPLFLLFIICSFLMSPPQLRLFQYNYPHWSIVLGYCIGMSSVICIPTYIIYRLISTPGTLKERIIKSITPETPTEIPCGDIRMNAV
Measurement kind: log10 Ki (log10 of the value in µM)

Compound | Measured
O=C(NCCN1C2CCC1CC(OC(c1ccc(F)cc1)c1ccc(F)cc1)C2)c1ccccc1 (stereo not drawn) | -0.22
OCCOCCN1C2CCC1CC(OC(c1ccc(F)cc1)c1ccc(F)cc1)C2 (stereo not drawn) | 1.16
Fc1ccc(C(OC2CC3CCC(C2)N3CCOCc2ccccc2)c2ccc(F)cc2)cc1 (stereo not drawn) | 0.11
O=C(CCN1[C@@H]2CC[C@H]1C[C@@H](OC(c1ccc(F)cc1)c1ccc(F)cc1)C2)Nc1ccccc1 | 0.17
Fc1ccc(C(OC2CC3CCC(C2)N3CCOCc2cccs2)c2ccc(F)cc2)cc1 (stereo not drawn) | 0.32
NCCN1[C@@H]2CC[C@H]1C[C@@H](OC(c1ccc(F)cc1)c1ccc(F)cc1)C2 | 0.66
Fc1ccc(C(OC2CC3CCC(C2)N3CCOCCN2CCOCC2)c2ccc(F)cc2)cc1 (stereo not drawn) | 1.36
Fc1ccc(C(OC2CC3CCC(C2)N3CCCOc2ccccc2)c2ccc(F)cc2)cc1 (stereo not drawn) | 0.89

====

- Tested system: Muscarinic acetylcholine receptor M1 (Rattus norvegicus, UniProt P08482)
- Sequence (P08482 whole entry): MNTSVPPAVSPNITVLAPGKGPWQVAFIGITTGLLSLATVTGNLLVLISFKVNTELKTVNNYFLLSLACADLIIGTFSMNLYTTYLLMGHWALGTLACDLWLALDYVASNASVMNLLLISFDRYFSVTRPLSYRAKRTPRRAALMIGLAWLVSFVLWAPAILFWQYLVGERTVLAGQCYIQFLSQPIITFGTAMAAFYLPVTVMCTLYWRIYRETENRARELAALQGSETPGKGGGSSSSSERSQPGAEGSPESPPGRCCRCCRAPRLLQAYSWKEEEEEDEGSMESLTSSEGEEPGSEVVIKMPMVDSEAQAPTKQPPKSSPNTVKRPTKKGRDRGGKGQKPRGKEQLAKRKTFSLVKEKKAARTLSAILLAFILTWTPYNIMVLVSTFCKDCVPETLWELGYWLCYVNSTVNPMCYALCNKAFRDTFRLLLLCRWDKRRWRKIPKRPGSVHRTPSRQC
So basically: is Ki under 3 µM? Then met. Not under? Then not met.

Molecule | Answer label
O=C(CCN1[C@@H]2CC[C@H]1C[C@@H](OC(c1ccc(F)cc1)c1ccc(F)cc1)C2)Nc1ccccc1 | not met
OCCOCCN1C2CCC1CC(OC(c1ccc(F)cc1)c1ccc(F)cc1)C2 (configuration not stated) | met
O=C(NCCN1C2CCC1CC(OC(c1ccc(F)cc1)c1ccc(F)cc1)C2)c1ccccc1 (configuration not stated) | met
Fc1ccc(C(OC2CC3CCC(C2)N3CCOCc2cccs2)c2ccc(F)cc2)cc1 (configuration not stated) | met
Fc1ccc(C(OC2CC3CCC(C2)N3CCCOc2ccccc2)c2ccc(F)cc2)cc1 (configuration not stated) | not met
Fc1ccc(C(OC2CC3CCC(C2)N3CCOCc2ccccc2)c2ccc(F)cc2)cc1 (configuration not stated) | met
Fc1ccc(C(OC2CC3CCC(C2)N3CCOCCN2CCOCC2)c2ccc(F)cc2)cc1 (configuration not stated) | not met
